The measurements presented in this section are drawn from patent US6221865A.

- system name: protein farnesyltransferase (Rattus norvegicus, UniProt Q02293+Q04631)
- Construct: The enzyme is purified according to Reiss, Y., et al., Cell, 62: 81-88 (1990), utilizing steps one through three; from tissue; host or cells: rat brain
- assay explanation: Inhibition of farnesyltransferase (scintillation proximity assay, rat brain enzyme, biotin-K Ras B fragment substrate)
- Type: biochemical
- condition summary: 1 × 10^-7 M (Table 3)
observable: % inhibition of farnesyltransferase at 1 × 10^-7 M

Quick check: % inhibition of farnesyltransferase at 1 × 10^-7 M on protein farnesyltransferase (Rattus norvegicus, UniProt Q02293+Q04631), item "CSCC[C@H](NC(=O)c1ccc(COCc2ccc(-c3ccc(C=O)cc3)o2)cc1-c1ccccc1C)C(=O)[O-].[Li+]" ?
92%

Return % inhibition of farnesyltransferase at 1 × 10^-7 M measured with protein farnesyltransferase (Rattus norvegicus, UniProt Q02293+Q04631) given this molecule: "COc1ncc(COCc2ccc(C(=O)N[C@@H](CCSC)C(=O)O)c(-c3ccccc3C)c2)s1"
96%

State its % inhibition of farnesyltransferase at 1 × 10^-7 M on protein farnesyltransferase (Rattus norvegicus, UniProt Q02293+Q04631): "CSCC[C@H](NC(=O)c1ccc(CNc2ccc(N3CCOCC3)cc2)cc1-c1ccccc1C)C(=O)O"
72%

State its % inhibition of farnesyltransferase at 1 × 10^-7 M on protein farnesyltransferase (Rattus norvegicus, UniProt Q02293+Q04631): "CSCC[C@@H](C(=O)[O-])N(C)C(=O)c1ccc(COCCCC2CCCCC2)cc1-c1ccccc1C.[Li+]"
75%

GET /values?readout=% inhibition of farnesyltransferase at 1 × 10^-7 M&system=protein farnesyltransferase (Rattus norvegicus, UniProt Q02293+Q04631)&item= "CSCC[C@H](NC(=O)c1ccc(COCc2ccc(-c3cccc(F)c3)o2)cc1-c1ccccc1C)C(=O)[O-].[Li+]"
89%

API: value(readout=% inhibition of farnesyltransferase at 1 × 10^-7 M, system=protein farnesyltransferase (Rattus norvegicus, UniProt Q02293+Q04631)) for record "CSCC[C@H](NC(=O)c1ccc(CN(Cc2ccccc2)c2ccccc2[N+](=O)[O-])cc1-c1ccccc1C)C(=O)[O-].[Li+]"
66%

Request body: readout % inhibition of farnesyltransferase at 1 × 10^-7 M, system protein farnesyltransferase (Rattus norvegicus, UniProt Q02293+Q04631), query "CCCCN(CCCC)Cc1ccc(C(=O)N[C@@H](CCSC)C(=O)O)c(-c2ccccc2C)c1" . Return the value.
78%

###

- system name: protein farnesyltransferase (Rattus norvegicus, UniProt Q02293+Q04631)
- Construct: The enzyme is purified according to Reiss, Y., et al., Cell, 62: 81-88 (1990), utilizing steps one through three; from tissue; host or cells: rat brain
- assay explanation: Inhibition of farnesyltransferase (scintillation proximity assay, rat brain enzyme, biotin-K Ras B fragment substrate)
- Format: biochemical
- condition summary: read-out: % inhibition of farnesyltransferase at 1 × 10^-6 M; 1 × 10^-6 M (Table 2)
Where a name gives a salt, the structure may show the parent alone.
observable: inhibition at 1 µM (%)
Give the number; % is assumed, so skip it.

Missing value: inhibition at 1 µM, protein farnesyltransferase (Rattus norvegicus, UniProt Q02293+Q04631), entry "CSCC[C@H](NC(=O)c1ccc(CN2CCC[C@H]2COCc2ccccc2)cc1-c1ccccc1C)C(=O)O" . Fill in?
90

// fetch protein farnesyltransferase (Rattus norvegicus, UniProt Q02293+Q04631) inhibition at 1 µM for "Cc1ccccc1-c1cc(CN(C)C(C)(C)Cc2ccccc2)ccc1C(=O)N[C@@H](CCS(C)(=O)=O)C(=O)O"
94

So what inhibition at 1 µM did "CSCC[C@H](NC(=O)c1ccc(CN2C(=O)OC[C@@H]2CC2CCCCC2)cc1-c1ccccc1C)C(=O)O" get with protein farnesyltransferase (Rattus norvegicus, UniProt Q02293+Q04631)?
99

Which measured inhibition at 1 µM belongs to CSCC[C@H](NC(=O)c1ccc(CCc2cccc(-c3ccccc3)c2)cc1-c1ccccc1C)C(=O)O [Example 793, lithium salt] , tested on protein farnesyltransferase (Rattus norvegicus, UniProt Q02293+Q04631)?
94

Form field: inhibition at 1 µM recorded for CSCC[C@H](NC(=O)c1ccc(C=CCc2ccccc2)cc1-c1ccccc1C)C(=O)O (mixture of isomers) with protein farnesyltransferase (Rattus norvegicus, UniProt Q02293+Q04631) (enter value)
92

Kindly state the measured inhibition at 1 µM obtained for CSCC[C@H](NC(=O)c1ccc(/C=C/c2cnc(Oc3ccccc3)cn2)cc1-c1ccccc1C)C(=O)O [Example 812, lithium salt] with protein farnesyltransferase (Rattus norvegicus, UniProt Q02293+Q04631).
94

For the record CSCC[C@H](NC(=O)c1ccc(CCCc2ccc3ccccc3c2)cc1-c1ccccc1C)C(=O)O [Example 470, lithium salt] , what value of inhibition at 1 µM is listed for protein farnesyltransferase (Rattus norvegicus, UniProt Q02293+Q04631)?
95

Fill in the recorded inhibition at 1 µM for this molecule, with protein farnesyltransferase (Rattus norvegicus, UniProt Q02293+Q04631) as test system: "Cc1ccccc1-c1cc(CN(C2CC2)C(C)(C)Cc2ccccc2)ccc1C(=O)N[C@@H](CCS(C)(=O)=O)C(=O)O"
98

Report inhibition at 1 µM for CSCC[C@H](NC(=O)c1ccc(CN2CCC(OCc3ccccc3)C2)cc1-c1ccccc1C)C(=O)O (some centres unmarked) tested on protein farnesyltransferase (Rattus norvegicus, UniProt Q02293+Q04631).
92

Recall the recorded inhibition at 1 µM for "Cc1ccccc1-c1cc(CN(C)C(C)(C)CC2CCCCC2)ccc1C(=O)N[C@@H](CCS(C)(=O)=O)C(=O)O" with protein farnesyltransferase (Rattus norvegicus, UniProt Q02293+Q04631) and state it.
97

// lookup inhibition at 1 µM | system=protein farnesyltransferase (Rattus norvegicus, UniProt Q02293+Q04631) | key= "CSCC[C@H](NC(=O)c1ccc(CN2CCNCC2)cc1-c1ccccc1)C(=O)O"
74

Lookup: inhibition at 1 µM / protein farnesyltransferase (Rattus norvegicus, UniProt Q02293+Q04631) / CSCC[C@H](NC(=O)c1ccc(-c2cccc(-c3ccccc3)c2)cc1-c1ccccc1C)C(=O)O [Example 787, lithium salt]
70

What inhibition at 1 µM appears in the records for this molecule with protein farnesyltransferase (Rattus norvegicus, UniProt Q02293+Q04631)? "CSCC[C@H](NC(=O)c1ccc(N2CC(=O)NNC2=O)cc1-c1ccccc1)C(=O)O"
41

# query: inhibition at 1 µM | item "CSCC[C@H](NC(=O)c1ccc(CN(C(C)C)C(C)(C)Cc2ccccc2)cc1-c1ccccc1C)C(=O)O" | system: protein farnesyltransferase (Rattus norvegicus, UniProt Q02293+Q04631)
54
